Target: T1, SEMG2(563-574) fragment (human)
T1 peptide: VAQDDHLTQQYN
Test: ELISA, immobilized antigen SEMG2 (563-574)
measurement_label: binding result

[[record]]
binder = "MM14 (antibody, IgG2b, V domains shown) VH: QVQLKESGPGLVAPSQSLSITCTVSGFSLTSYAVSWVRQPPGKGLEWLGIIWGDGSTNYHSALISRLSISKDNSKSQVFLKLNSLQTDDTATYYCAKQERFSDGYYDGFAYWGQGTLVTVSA VL: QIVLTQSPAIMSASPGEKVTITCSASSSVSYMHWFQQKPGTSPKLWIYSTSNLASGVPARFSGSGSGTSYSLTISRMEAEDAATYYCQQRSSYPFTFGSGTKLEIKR"
measurement_label = "binding result"
reading = "no binding"

[[record]]
binder = "MM05 (antibody, IgG1, V domains shown) VH: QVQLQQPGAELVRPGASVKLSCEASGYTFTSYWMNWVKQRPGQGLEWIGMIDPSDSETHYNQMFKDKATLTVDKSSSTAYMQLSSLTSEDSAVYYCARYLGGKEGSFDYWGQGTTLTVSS VL: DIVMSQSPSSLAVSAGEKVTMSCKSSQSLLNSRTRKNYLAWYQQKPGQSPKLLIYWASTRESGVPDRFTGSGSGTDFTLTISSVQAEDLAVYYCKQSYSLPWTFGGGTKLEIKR"
measurement_label = "binding result"
reading = "no binding"

[[record]]
binder = "MM08 (antibody, IgG1, V domains shown) VH: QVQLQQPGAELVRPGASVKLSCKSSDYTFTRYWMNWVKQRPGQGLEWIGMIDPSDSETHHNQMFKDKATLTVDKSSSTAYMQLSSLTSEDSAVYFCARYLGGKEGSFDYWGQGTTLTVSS VL: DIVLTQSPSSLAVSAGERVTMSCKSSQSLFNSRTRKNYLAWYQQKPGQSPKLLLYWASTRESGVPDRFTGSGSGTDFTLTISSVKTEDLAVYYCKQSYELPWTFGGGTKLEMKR"
measurement_label = "binding result"
reading = "no binding"

